biological target: Kappa-type opioid receptor (Homo sapiens); experiment: biochemical; type: cell-based, CHO
Sequence (P41145 whole entry): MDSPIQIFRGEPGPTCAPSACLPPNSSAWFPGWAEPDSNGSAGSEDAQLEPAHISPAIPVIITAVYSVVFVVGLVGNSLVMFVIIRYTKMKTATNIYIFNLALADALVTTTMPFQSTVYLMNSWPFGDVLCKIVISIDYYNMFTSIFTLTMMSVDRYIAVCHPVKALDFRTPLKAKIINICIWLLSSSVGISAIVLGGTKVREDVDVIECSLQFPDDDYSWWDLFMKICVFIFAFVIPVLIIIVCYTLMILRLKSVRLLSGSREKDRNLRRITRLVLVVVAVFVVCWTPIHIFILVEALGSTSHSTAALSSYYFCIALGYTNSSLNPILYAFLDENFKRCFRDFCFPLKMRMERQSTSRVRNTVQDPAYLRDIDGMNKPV
Description: Displacement of [125I]OXY from human kappa opioid receptor expressed in CHO cells
Recorded Ki by entry
property.name: Ki (µM)

* Oc1cccc2c1O[C@H]1CCC[C@H]3CN(CC4CC4)CC[C@@]231 (stereo in doubt; (+)-1b) | 0.699
* Oc1cccc2c1O[C@H]1CCC[C@H]3CN(CCc4ccccc4)CC[C@@]231 (stereo in doubt; (+)-1c) | 1.24
* CN1CC[C@]23c4cccc(O)c4O[C@H]2CCC[C@H]3C1 (stereo in doubt; (-)-1a) | 0.014
* COc1cccc2c1O[C@H]1CCC[C@H]3CN(CCc4ccccc4)CC[C@@]231 (stereo in doubt; (+)-3c) | 1.14
* COc1cccc2c1O[C@H]1CCC[C@H]3CN(C)CC[C@@]231 (stereo in doubt; (+)-3a) | 7.23
* Oc1cccc2c1O[C@H]1CCC[C@H]3CN(CC4CC4)CC[C@@]231 (stereo in doubt; (-)-1b) | 0.0001
* Oc1cccc2c1O[C@H]1CCC[C@H]3CN(CCc4ccccc4)CC[C@@]231 (stereo in doubt; (-)-1c) | 0.015
* COc1cccc2c1O[C@H]1CCC[C@H]3CN(CC4CC4)CC[C@@]231 (stereo in doubt; (-)-3b) | 0.041
* CN1CC[C@]23c4cccc(O)c4O[C@H]2CCC[C@H]3C1 (stereo in doubt; (+)-1a) | 6.9
* COc1cccc2c1O[C@H]1CCC[C@@H]3CN(C)CC[C@@]231 (stereo in doubt; (+)-4) | 1.85
* COc1cccc2c1O[C@H]1CCC[C@@H]3CN(C)CC[C@@]231 (stereo in doubt; (-)-4) | 0.565
* COc1cccc2c1O[C@H]1CCC[C@H]3CN(CCc4ccccc4)CC[C@@]231 (stereo in doubt; (-)-3c) | 1.85
* COc1cccc2c1O[C@H]1CCC[C@H]3CN(C)CC[C@@]231 (stereo in doubt; (-)-3a) | 3.47

###

organism: Homo sapiens; assay: Selectivity index, ratio of Ki for human kappa opioid receptor to human mu opioid receptor
# Ratio Ki values compiled below
property.name: Ratio Ki

- Oc1cccc2c1O[C@H]1CCC[C@H]3CN(CCc4ccccc4)CC[C@@]231 (stereo in doubt; (-)-1c): 50
- COc1cccc2c1O[C@H]1CCC[C@H]3CN(CCc4ccccc4)CC[C@@]231 (stereo in doubt; (-)-3c): 77
- COc1cccc2c1O[C@H]1CCC[C@@H]3CN(C)CC[C@@]231 (stereo in doubt; (+)-4): < 0.19
- Oc1cccc2c1O[C@H]1CCC[C@H]3CN(CC4CC4)CC[C@@]231 (stereo in doubt; (-)-1b): 1.3
- COc1cccc2c1O[C@H]1CCC[C@H]3CN(C)CC[C@@]231 (stereo in doubt; (+)-3a): 0.95
- COc1cccc2c1O[C@H]1CCC[C@H]3CN(CC4CC4)CC[C@@]231 (stereo in doubt; (-)-3b): 1.4
- Oc1cccc2c1O[C@H]1CCC[C@H]3CN(CCc4ccccc4)CC[C@@]231 (stereo in doubt; (+)-1c): 4.5
- COc1cccc2c1O[C@H]1CCC[C@H]3CN(C)CC[C@@]231 (stereo in doubt; (-)-3a): 15

###

organism: Homo sapiens; assay: Selectivity index, ratio of Ki for human kappa opioid receptor to human mu opioid receptor
property.name: Ratio Ki

• COc1cccc2c1O[C@H]1CCC[C@@H]3CN(C)CC[C@@]231 (stereo in doubt; (-)-4) = 21
• Oc1cccc2c1O[C@H]1CCC[C@H]3CN(CC4CC4)CC[C@@]231 (stereo in doubt; (+)-1b) = 0.53
• COc1cccc2c1O[C@H]1CCC[C@H]3CN(CCc4ccccc4)CC[C@@]231 (stereo in doubt; (+)-3c) = 7.9

###

target: Sigma non-opioid intracellular receptor 1 (Rattus norvegicus); assay: Displacement of [3H](+)-pentazocine from sigma1 receptor in rat brain homogenate
Sequence (Q9R0C9 whole entry): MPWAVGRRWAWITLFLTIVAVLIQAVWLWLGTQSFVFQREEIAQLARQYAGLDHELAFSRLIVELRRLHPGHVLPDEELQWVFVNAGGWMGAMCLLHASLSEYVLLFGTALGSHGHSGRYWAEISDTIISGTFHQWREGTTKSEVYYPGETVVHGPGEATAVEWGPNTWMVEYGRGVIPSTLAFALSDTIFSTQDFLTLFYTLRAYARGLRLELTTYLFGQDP
pKi: −log10 of the molar value.
property.name: pKi

• COc1cccc2c1O[C@H]1CCC[C@H]3CN(CCc4ccccc4)CC[C@@]231 (stereo in doubt; (-)-3c) = 6.25
• COc1cccc2c1O[C@H]1CCC[C@H]3CN(C)CC[C@@]231 (stereo in doubt; (+)-3a) = 6.18
• Oc1cccc2c1O[C@H]1CCC[C@H]3CN(CC4CC4)CC[C@@]231 (stereo in doubt; (+)-1b) = 6.70
• COc1cccc2c1O[C@H]1CCC[C@H]3CN(CC4CC4)CC[C@@]231 (stereo in doubt; (-)-3b) = 6.55
• CN1CC[C@]23c4cccc(O)c4O[C@H]2CCC[C@H]3C1 (stereo in doubt; (+)-1a) = 5.70

###

species on record: Rattus norvegicus; test: Selectivity index, ratio of Ki for rat brain sigma2 receptor to Ki for rat brain sigma1 receptor
One threshold, 9, splits the recorded Ratio Ki values: lower ones are condition met, equal or higher ones are condition not met.

* COc1cccc2c1O[C@H]1CCC[C@H]3CN(C)CC[C@@]231 (stereo in doubt; (+)-3a) | condition not met
* COc1cccc2c1O[C@H]1CCC[C@H]3CN(C)CC[C@@]231 (stereo in doubt; (-)-3a) | condition met
* COc1cccc2c1O[C@H]1CCC[C@H]3CN(CC4CC4)CC[C@@]231 (stereo in doubt; (-)-3b) | condition not met
* Oc1cccc2c1O[C@H]1CCC[C@H]3CN(CCc4ccccc4)CC[C@@]231 (stereo in doubt; (+)-1c) | condition met
* COc1cccc2c1O[C@H]1CCC[C@H]3CN(CC4CC4)CC[C@@]231 (stereo in doubt; (+)-3b) | condition not met
* COc1cccc2c1O[C@H]1CCC[C@H]3CN(CCc4ccccc4)CC[C@@]231 (stereo in doubt; (-)-3c) | condition met
* Oc1cccc2c1O[C@H]1CCC[C@H]3CN(CC4CC4)CC[C@@]231 (stereo in doubt; (-)-1b) | condition not met

###

# maps each entry to its pKi
target: Delta-type opioid receptor (Homo sapiens); experiment: Displacement of [125I]OXY from human delta opioid receptor expressed in CHO cells; format: cell-based
Sequence (P41143 whole entry): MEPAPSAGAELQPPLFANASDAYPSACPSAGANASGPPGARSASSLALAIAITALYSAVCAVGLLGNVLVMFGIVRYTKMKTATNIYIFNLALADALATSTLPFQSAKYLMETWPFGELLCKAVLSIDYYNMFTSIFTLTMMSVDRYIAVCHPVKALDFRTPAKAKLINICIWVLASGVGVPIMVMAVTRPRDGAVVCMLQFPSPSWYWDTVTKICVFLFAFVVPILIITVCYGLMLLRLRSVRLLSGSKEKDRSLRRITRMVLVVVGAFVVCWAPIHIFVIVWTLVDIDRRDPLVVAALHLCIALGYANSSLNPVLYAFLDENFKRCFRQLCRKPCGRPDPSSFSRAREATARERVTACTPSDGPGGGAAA
pKi: −log10 of the molar value.
property.name: pKi

• Oc1cccc2c1O[C@H]1CCC[C@H]3CN(CC4CC4)CC[C@@]231 (stereo in doubt; (-)-1b) = 8.70
• COc1cccc2c1O[C@H]1CCC[C@H]3CN(CC4CC4)CC[C@@]231 (stereo in doubt; (-)-3b) = 6.26
• CN1CC[C@]23c4cccc(O)c4O[C@H]2CCC[C@H]3C1 (stereo in doubt; (-)-1a) = 7.36
• COc1cccc2c1O[C@H]1CCC[C@H]3CN(CCc4ccccc4)CC[C@@]231 (stereo in doubt; (+)-3c) = 5.08

Origin of values: ChEMBL document CHEMBL1156815
